System: U2932 TK216-resistant clone 3
Test: cell proliferation relative to vehicle (% of vehicle); higher = less growth inhibition
Settings: 50 nM; 72 h
Label criterion met when cell proliferation is at or above 100; otherwise label criterion not met.

Known results for molecules:
>  <smiles-input>
CCCCOc1c(C(=O)c2c(F)cc(C)cc2F)c[nH]c2nncc1-2

>  <group-label>
criterion not met

$$$$
>  <smiles-input>
CC(=O)O[C@H]1C(=O)[C@@]2(C)[C@H]([C@H](OC(=O)c3ccccc3)[C@]3(O)C[C@H](OC(=O)[C@H](O)[C@@H](NC(=O)c4ccccc4)c4ccccc4)C(C)=C1C3(C)C)[C@]1(OC(C)=O)CO[C@@H]1C[C@@H]2O

>  <group-label>
criterion not met

$$$$

Ask: Decide: is the reported value of cell proliferation for CCCCCOC(=O)Nc1nc(=O)n([C@@H]2O[C@H](C)[C@@H](O)[C@H]2O)cc1F equal to or greater than 100?
Reply: criterion met

* * *

Tested on: U2932 TK216-resistant clone 3
Assay: cell proliferation relative to vehicle (% of vehicle); higher = less growth inhibition
Settings: 500 nM; 72 h
Here, each record is paired with measured cell proliferation data.
Output: the number by itself.

Below are worked cases with known answers.
>  <compound>
COc1ccc(-c2ccc3c(N4CCOC[C@@H]4C)nc(N4CCOC[C@@H]4C)nc3n2)cc1CO

>  <subject-of-test>
U2932 TK216-resistant clone 3

>  <recorded-result>
40.2

$$$$
>  <compound>
CN1CCCN(C(=O)c2cccc(-c3ccc(/C=C4/C(=O)Nc5ccc(Cl)cc54)o3)c2)CC1

>  <subject-of-test>
U2932 TK216-resistant clone 3

>  <recorded-result>
88.5

$$$$
>  <compound>
COc1ccc(-c2ccc3c(N4CCOCC4)nc(N4C[C@@H](C)O[C@@H](C)C4)nc3n2)cc1CO

>  <subject-of-test>
U2932 TK216-resistant clone 3

>  <recorded-result>
49.3

$$$$
>  <compound>
CCCCOc1c(C(=O)c2c(F)cc(C)cc2F)c[nH]c2nncc1-2

>  <subject-of-test>
U2932 TK216-resistant clone 3

>  <recorded-result>
58.9

$$$$
>  <compound>
CS(=O)(=O)CCNCc1ccc(-c2ccc3ncnc(Nc4ccc(OCc5cccc(F)c5)c(Cl)c4)c3c2)o1

>  <subject-of-test>
U2932 TK216-resistant clone 3

>  <recorded-result>
84.4

$$$$

Ask: Record C[C@H]1c2cccc(O)c2C(=O)C2=C(O)[C@]3(O)C(=O)C(C(N)=O)=C(O)[C@@H](N(C)C)[C@@H]3[C@@H](O)[C@@H]21 [Doxycycline Hyclate] : what is its cell proliferation with U2932 TK216-resistant clone 3?
Reply: 102

Ask: Record Oc1cc(O)cc(/C=C/c2ccc(O)c(O)c2)c1 : what is its cell proliferation with U2932 TK216-resistant clone 3?
Reply: 100

Ask: Record Cc1nc(C(=O)NCC(=O)O)c(O)c2ccc(Oc3ccccc3)cc12 : what is its cell proliferation with U2932 TK216-resistant clone 3?
Reply: 98.5

* * *

Here, each record is paired with measured cell proliferation data.
Tested on: U2932 parental
Experiment: cell proliferation relative to vehicle (% of vehicle); higher = less growth inhibition
Details: 500 nM; 72 h

Below are worked cases with known answers.
>  <smiles-input>
CC(=O)O[C@@]12CO[C@@H]1C[C@H](O)[C@@]1(C)C(=O)[C@H](O)C3=C(C)[C@@H](OC(=O)[C@H](O)[C@@H](NC(=O)OC(C)(C)C)c4ccccc4)C[C@@](O)([C@@H](OC(=O)c4ccccc4)[C@H]21)C3(C)C

>  <cell proliferation>
9.31

$$$$
>  <smiles-input>
CCNC(=O)c1noc(-c2cc(C(C)C)c(O)cc2O)c1-c1ccc(CN2CCOCC2)cc1

>  <cell proliferation>
3.9

$$$$
>  <smiles-input>
Nc1cc(C(F)(F)F)c(-c2cc(N3CCOCC3)nc(N3CCOCC3)n2)cn1

>  <cell proliferation>
78.5

$$$$

In the following, a different compound is considered.
Ask: Tell me the measured cell proliferation of O=C(/C=C/c1ccc(CN(CCO)CCc2c[nH]c3ccccc23)cc1)NO , please.
Reply: 0.789

* * *

Here, each record is paired with measured cell proliferation data.
Tested on: U2932 TK216-resistant clone 3
Test: cell proliferation relative to vehicle (% of vehicle); higher = less growth inhibition
Details: 500 nM; 72 h
Counter-ions that a name gives are not always drawn.
Output: the number by itself.

Below are worked cases with known answers.
>  <molecule>
O=C(O)CC[C@H]1CC[C@@](c2cc(F)ccc2F)(S(=O)(=O)c2ccc(Cl)cc2)CC1

>  <recorded-result>
106

$$$$
>  <molecule>
CC(C)(C)c1nc(-c2cccc(NS(=O)(=O)c3c(F)cccc3F)c2F)c(-c2ccnc(N)n2)s1

>  <recorded-result>
110

$$$$
>  <molecule>
CCCCCCNC(=O)n1cc(F)c(=O)[nH]c1=O [Carmofur]

>  <recorded-result>
99.8

$$$$
>  <molecule>
Cc1cnc(-c2ccccc2C(C)C)nc1NCc1ccc(-n2ccnn2)cc1

>  <recorded-result>
108

$$$$
>  <molecule>
COc1cc2ncnc(Oc3ccc(CC(=O)Nc4cnn(C(C)C)c4)cc3)c2cc1OC

>  <recorded-result>
98.5

$$$$
>  <molecule>
Nc1cccc2c1CN(C1CCC(=O)NC1=O)C2=O (configuration not stated) [Lenalidomide (CC-5013)]

>  <recorded-result>
96

$$$$
>  <molecule>
O=C(NOCC1CC1)c1ccc(F)c(F)c1Nc1ccc(I)cc1Cl

>  <recorded-result>
90.8

$$$$
>  <molecule>
COC(=O)c1ccc([C@H]2c3[nH]c4ccccc4c3C[C@H](C(=O)OC)N2C(=O)CCl)cc1

>  <recorded-result>
-4.49

$$$$

Ask: Tell me the measured cell proliferation of C[C@@H](O[C@H]1OCCN(Cc2n[nH]c(=O)[nH]2)[C@H]1c1ccc(F)cc1)c1cc(C(F)(F)F)cc(C(F)(F)F)c1 [Aprepitant] , please.
Reply: 97.4

Ask: Tell me the measured cell proliferation of COCC[n+]1c2c(n(Cc3cnccn3)c1C)C(=O)c1ccccc1C2=O [YM155 (Sepantronium Bromide)] , please.
Reply: -4.35

Ask: Tell me the measured cell proliferation of Cn1cnc2c(F)c(Nc3ccc(Br)cc3Cl)c(C(=O)NOCCO)cc21 [Selumetinib (AZD6244)] , please.
Reply: 90.1

Ask: Tell me the measured cell proliferation of Nc1nc(N)c2nc(-c3cccc(O)c3)c(-c3cccc(O)c3)nc2n1 , please.
Reply: 96.6

Ask: Tell me the measured cell proliferation of CN(c1ncccc1CNc1nc(Nc2ccc3c(c2)CC(=O)N3)ncc1C(F)(F)F)S(C)(=O)=O , please.
Reply: 95.2

Ask: Tell me the measured cell proliferation of O=C1c2c(O)ccc(O)c2C(=O)c2c(NCCNCCO)ccc(NCCNCCO)c21 [Mitoxantrone HCl] , please.
Reply: 10.6

Ask: Tell me the measured cell proliferation of C[C@@H]1CCN(C(=O)CC#N)C[C@@H]1N(C)c1ncnc2[nH]ccc12 , please.
Reply: 98.5

Ask: Tell me the measured cell proliferation of Nc1ccn([C@@H]2O[C@H](CO)[C@@H](O)[C@@H]2O)c(=O)n1 [Cytarabine] , please.
Reply: 65.8

Ask: Tell me the measured cell proliferation of CC[C@H](NC(=O)[C@H](C)NC)C(=O)N1C[C@@H](O)C[C@H]1Cc1c(-c2[nH]c3cc(F)ccc3c2C[C@@H]2C[C@H](O)CN2C(=O)[C@H](CC)NC(=O)[C@H](C)NC)[nH]c2cc(F)ccc12 [Birinapant] , please.
Reply: 90.9

Ask: Tell me the measured cell proliferation of Cc1[nH]nc2ccc(-c3cncc(OC[C@@H](N)Cc4ccccc4)c3)cc12 , please.
Reply: 40.6

Ask: Tell me the measured cell proliferation of Cn1cc(-c2ccc3nnc(C(F)(F)c4ccc5ncccc5c4)n3n2)cn1 , please.
Reply: 113

Ask: Tell me the measured cell proliferation of CCO[C@@H]1OC(=O)C[C@@H]1NC(=O)[C@@H]1CCCN1C(=O)[C@@H](NC(=O)c1ccc(N)c(Cl)c1)C(C)(C)C , please.
Reply: 102

Ask: Tell me the measured cell proliferation of CNC(=O)c1ccccc1Sc1ccc2c(/C=C/c3ccccn3)n[nH]c2c1 [Axitinib] , please.
Reply: 92.8

Ask: Tell me the measured cell proliferation of O=C(c1ccc(/C=C/c2n[nH]c3ccccc23)cc1)N1CCNCC1 , please.
Reply: 82.4

Ask: Tell me the measured cell proliferation of CC(=O)c1c(C)c2cnc(Nc3ccc(N4CCNCC4)cn3)nc2n(C2CCCC2)c1=O , please.
Reply: 92.5

Ask: Tell me the measured cell proliferation of Cc1ccc(NC(=O)c2ccc(CN3CCN(C)CC3)cc2)cc1Nc1nc(-c2cccnc2)cs1 [Masitinib (AB1010)] , please.
Reply: 86.2

Ask: Tell me the measured cell proliferation of CCCCCCCCCCCC1=C(O)C(=O)C=C(O)C1=O [Embelin] , please.
Reply: 103

Ask: Tell me the measured cell proliferation of CC(=O)O[C@H]1C(=O)[C@@]2(C)[C@H]([C@H](OC(=O)c3ccccc3)[C@]3(O)C[C@H](OC(=O)[C@H](O)[C@@H](NC(=O)c4ccccc4)c4ccccc4)C(C)=C1C3(C)C)[C@]1(OC(C)=O)CO[C@@H]1C[C@@H]2O [Paclitaxel] , please.
Reply: 4.73

Ask: Tell me the measured cell proliferation of COc1cc([C@@H]2c3cc4c(cc3[C@@H](O[C@@H]3O[C@@H]5CO[C@@H](c6cccs6)O[C@H]5[C@H](O)[C@H]3O)[C@H]3COC(=O)[C@H]23)OCO4)cc(OC)c1O [Teniposide] , please.
Reply: 19.8
